Biological target: T1, recombinant human ErbB2/Fc chimera (human, UniProt P04626 23-652)
T1 construct: bought from R&D Systems; also called rhErbB2-Fc; rhErb2-Fc; Fc part of the bought chimera not given; not described
Test: ELISA, coated ErbB2/Fc
readout label: binding result

13E51/1-128 (VHH, C-term myc-His6 tag) VHH: EVQLVESGGGLVQAGGSLRLSCAASRHTFSGYAMGWFRQAPGKEREFVAAIRWSGGITYYADSVKGRFTISSDNAKNTVYLQMNSLKPEDTALYYCARSVTYYSGSHAYTQEGGYARWGQGTQVTVSS: binds
27A5 (VHH, C-term myc-His6 tag) VHH: EVQLVESGGGLVQAGGSLNLSCVASGIPFSTRTMAWYRQPPGNERDWVATIRSGAPVYADSVKGRFTVSRDNAKNTLYLQMNSLEPEDTATYYCWDVNGDIWGQGTPVTVSS: binds
118N121_A11_1_OK/1-120 (VHH, C-term myc-His6 tag) VHH: EVQLVESGGGLVQPGGSLRLSCAASGFPFGMYGMRWVRQAPGKGPERVSSINSDGDTTYYADSVKGRFTISRDNDENMLYLQMNSLKPEDTAVYYCATGFSDRSFAVTHKGQGTQVTVSS: binds
30D10 (second entry, SEQ ID NO: 2204) (VHH, C-term myc-His6 tag) VHH: EVQLVESGGGLVQAGGSLTLSCTASETTVRIRTMAWYRQPPGNQREWVATIGSNGFATYPDSVKGRFTISRDNAKNTVYLQMNSLKPEDTAVYYCRDINRDIWGQGSQVTVSS: binds
